# target-desc: T1, CD28 (detection antigen of the BLI assay) (human, UniProt P10747 19-152, limits assumed)
# T1 construct: also called the antigen
# protocol-description: BLI (GATOR); antibody loaded at 30 nM, antigen 300-37.5 nM
The following binders are listed with their measured kon values.

binder: huVH3huVL1 (antibody, human IgG1, kappa, V domains shown) VH: QVQLQESGPGLVKPSETLSLTCTVSGFSLSDYGVHWVRQSPGKGLEWIGVIWAGGGTNYNSALKSRKTISKDNSKSQVSLKLSSVTAADTAVYYCARDKGYSYYYSMDYWGQGTTVTVSS VL: DIQLTQSPSSLSVSVGDRVTISCRASESVEYYVTSLMQWYQQKPGQAPKLLIFAASNVESGVPSRFSGSGSGTNFTLTISSVQEEDFAMYFCQQSRKVPYTFGGGTKLEIKR
kon: 86900 M⁻¹ s⁻¹

binder: huVH4huVL2 (antibody, human IgG1, kappa, V domains shown) VH: QVQLQESGPGLVKPSETLSLTCTVSGFSLSDYGVHWIRQPPGKGLEWIGVIWAGGGTNYNSALKSRVTISVDTSKNQVSLKLSSVTAADTAVYYCARDKGYSYYYSMDYWGQGTTVTVSS VL: DIQLTQSPSSLSASVGDRVTITCRASESVEYYVTSLMQWYQQKPGKAPKLLIFAASNVESGVPSRFSGSGSGTNFTLTISSVQPEDFATYFCQQSRKVPYTFGGGTKLEIKR
kon: 85400 M⁻¹ s⁻¹

binder: huVH4huVL3 (antibody, human IgG1, kappa, V domains shown) VH: QVQLQESGPGLVKPSETLSLTCTVSGFSLSDYGVHWIRQPPGKGLEWIGVIWAGGGTNYNSALKSRVTISVDTSKNQVSLKLSSVTAADTAVYYCARDKGYSYYYSMDYWGQGTTVTVSS VL: DIQLTQSPSSLSASVGDRVTITCRASESVEYYVTSLMQWYQQKPGKAPKLLIFAASNVESGVPSRFSGSGSGTDFTLTISSLQPEDFATYYCQQSRKVPYTFGGGTKLEIKR
kon: 86600 M⁻¹ s⁻¹

binder: huVH3huVL2 (antibody, human IgG1, kappa, V domains shown) VH: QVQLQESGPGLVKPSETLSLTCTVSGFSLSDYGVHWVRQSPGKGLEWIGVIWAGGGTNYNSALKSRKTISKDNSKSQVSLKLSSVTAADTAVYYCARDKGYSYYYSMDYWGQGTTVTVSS VL: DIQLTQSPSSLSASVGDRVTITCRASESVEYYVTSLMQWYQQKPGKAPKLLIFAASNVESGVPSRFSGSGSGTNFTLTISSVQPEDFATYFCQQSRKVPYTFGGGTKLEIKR
kon: 85700 M⁻¹ s⁻¹

binder: huVH5huVL3 (antibody, human IgG1, kappa, V domains shown) VH: QVQLQESGPGLVKPSETLSLTCTVSGFSISDYGVHWIRQPPGKGLEWIGVIWAGGGTNYNPSLKSRVTISVDTSKNQVSLKLSSVTAADTAVYYCARDKGYSYYYSMDYWGQGTTVTVSS VL: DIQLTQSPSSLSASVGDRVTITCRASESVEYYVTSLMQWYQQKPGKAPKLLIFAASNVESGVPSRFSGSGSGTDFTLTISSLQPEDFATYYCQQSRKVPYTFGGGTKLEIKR
kon: 87800 M⁻¹ s⁻¹
